# Test system: Community 9
# assay-explanation: relative growth (AUC of 72 h growth curve relative to DMSO control, dAUC) (ratio); higher = more growth (less inhibition), active = hit call of the paper
# experimental-parameters: 20 µM
outcome-measure: relative growth
Give bare numbers.

Go through the items and report each one's relative growth.
1. C/C(=N\C#N)N(C)Cc1ccc(Cl)nc1
2. CC1(C)C(C=C(Cl)Cl)C1C(=O)OC(C#N)c1ccc(F)c(Oc2ccccc2)c1 (stereo unspecified)
3. CC(C)(C)c1ccc(CSc2cnn(C(C)(C)C)c(=O)c2Cl)cc1
4. CC(C)N1C(=O)c2ccccc2NS1(=O)=O
5. CC(C)N(C(=O)COc1nnc(C(F)(F)F)s1)c1ccc(F)cc1

Result:
1: 0.986; 2: 0.995; 3: 0.994; 4: 1.01; 5: 0.986

Go through the items and report each one's relative growth.
1. CCC(C)(C)C(=O)OC1=C(c2ccc(Cl)cc2Cl)C(=O)OC12CCCCC2
2. O=C1C2(Cl)C3(Cl)C4(Cl)C(Cl)(Cl)C5(Cl)C3(Cl)C1(Cl)C5(Cl)C24Cl (stereo unspecified)
3. CC(COc1ccc(Oc2ccccc2)cc1)Oc1ccccn1 (stereo unspecified)
4. CCC(C)c1ccccc1OC(=O)NC (stereo unspecified)
5. COCC(=O)N(c1c(C)cccc1C)[C@H](C)C(=O)OC
6. CCCCCCCCCCCCNC(=N)N
7. CC(C)N(C)S(=O)(=O)NC(=O)c1cc(-n2c(=O)cc(C(F)(F)F)n(C)c2=O)c(F)cc1Cl

Result:
1.05
0.875
1.04
1.07
1.1
0.294
1.14

Go through the items and report each one's relative growth.
1. CCCC1COC(Cn2cncn2)(c2ccc(Cl)cc2Cl)O1 (stereo unspecified)
2. N#CCNC(=O)c1cnccc1C(F)(F)F
3. CCCSP(=O)(OCC)Oc1ccc(Br)cc1Cl (stereo unspecified)
4. COP(=S)(OC)Oc1nc(Cl)c(Cl)cc1Cl

Result:
0.862
0.902
0.866
1.03
